Taken from patent US11634447B2.

- TARGET OR SYSTEM: FimH-CRD (Escherichia coli)
- Construct: The first 177 amino acids of the FimH protein are expressed as a fusion protein; thrombin tag (printed as 'fusion protein with thrombin') (cleaved yes); made in house; host or cells: bacteria (pET21b plasmid)
- EXPERIMENT: Competitive binding assay by fluorescence polarization, assay 2 (compounds prepared by a robotics system, plates frozen and thawed)
- Design: species or system E. coli
- TEST CONTEXT: read-out: Assay 2 Kd, 5 nM Alexa 647 mannoside probe, 60 nM FimH-CRD, replicate values in one cell
pKd: −log10 of the molar value.
For each record, write down the corresponding pKd.

Solved entries (count: 2):
molecule="OC[C@H]1O[C@H](C#Cc2ccc3cc(C#C[C@H]4O[C@H](CO)[C@@H](O)[C@H](O)[C@@H]4O)ccc3c2)[C@@H](O)[C@@H](O)[C@@H]1O [Compound 59]" reported_measurement="> 8.30"
molecule="OC[C@H]1O[C@H](c2ccc3cc(C#C[C@H]4O[C@H](CO)[C@@H](O)[C@H](O)[C@@H]4O)ccc3c2)[C@@H](O)[C@@H](O)[C@@H]1O [Compound 56]" reported_measurement="> 8.30"

Report pKd for OC[C@H]1O[C@H](C#Cc2ccc3ccc(C#C[C@H]4O[C@H](CO)[C@@H](O)[C@H](O)[C@@H]4O)cc3c2)[C@@H](O)[C@@H](O)[C@@H]1O [Compound 58] tested on FimH-CRD (Escherichia coli).
> 8.30

* * *

- TARGET OR SYSTEM: bacterial strain LF82 binding to the glycoprotein BSA-(Mannose)3
- EXPERIMENT: Bacterial Binding Assay (BBA)
- Format: cell-based, Escherichia coli
- TEST CONTEXT: LF82/Luciferase strain binding to BSA-(Man)3 coated plates, luminescence; read-out: Bacterial Binding Assay IC50
RESULT TYPE: IC50 (nM)
Give bare numbers, in nM.

compound="OC[C@H]1O[C@H](C#Cc2ccc(-c3ccc(C#C[C@H]4O[C@H](CO)[C@@H](O)[C@H](O)[C@@H]4O)s3)s2)[C@@H](O)[C@@H](O)[C@@H]1O [Compound 128]" unit_label=nM reported_measurement=22

Now, please, on to the next compound.
Request the reported IC50 associated with OC[C@H]1O[C@H](C#Cc2ccc3c(c2)C2(CC(O)C(O)CO2)c2cc(C#C[C@H]4O[C@H](CO)[C@@H](O)[C@H](O)[C@@H]4O)ccc2-3)[C@@H](O)[C@@H](O)[C@@H]1O (some centres unmarked) [Compound 197]
0.83

* * *

- TARGET OR SYSTEM: FimH-CRD (Escherichia coli, UniProt P08191)
- Construct: The first 177 amino acids of the FimH protein are expressed as a fusion protein; thrombin tag (printed as 'fusion protein with thrombin') (cleaved yes); made in house; host or cells: bacteria (pET21b plasmid)
- Sequence (P08191 22-177): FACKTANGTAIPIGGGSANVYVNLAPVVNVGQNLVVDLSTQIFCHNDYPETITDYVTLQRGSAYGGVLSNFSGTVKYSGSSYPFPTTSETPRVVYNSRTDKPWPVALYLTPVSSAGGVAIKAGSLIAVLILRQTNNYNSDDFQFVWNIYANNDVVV
- EXPERIMENT: Competitive binding assay by fluorescence polarization, assay 2 (compounds prepared by a robotics system, plates frozen and thawed)
- Set-up: species or system E. coli
- TEST CONTEXT: Assay 2 Kd, 5 nM Alexa 647 mannoside probe, 60 nM FimH-CRD, replicate values in one cell
For each record, write down the corresponding Kd.

given_smiles=OC[C@H]1O[C@H](C#Cc2ccc3ccc(C#C[C@H]4O[C@H](CO)[C@@H](O)[C@H](O)[C@@H]4O)cc3c2)[C@@H](O)[C@@H](O)[C@@H]1O reported_measurement="< 5 nM"
given_smiles=OC[C@H]1O[C@H](c2cccc(OCCCOc3cccc([C@H]4O[C@H](CO)[C@@H](O)[C@H](O)[C@@H]4O)c3)c2)[C@@H](O)[C@@H](O)[C@@H]1O reported_measurement="6 nM"

Now, please, on to the next molecule.
Request the reported Kd associated with `OC[C@H]1O[C@H](Cc2ccc(-c3ccc(C[C@H]4O[C@H](CO)[C@@H](O)[C@H](O)[C@@H]4O)cc3)cc2)[C@@H](O)[C@@H](O)[C@@H]1O`
< 5 nM
